Data provenance: patent US6242452A

- protocol: Concentration in blood of guinea pigs
- Assay type: in vivo
- test context: guinea pig, oral, 30 mg/kg in 1% methyl cellulose, plasma, HPLC, read-out: Tmax, time required for achieving the maximum concentration in blood
# Tmax per entry
Output spec: scalar in h, unitless text.

* CCn1c(=O)c2ccc(N)nc2n(-c2cc(OC)cc(OC)c2)c1=O | 3

// query Fill in: Tmax of CCCCn1c(=O)c2ccc(N)nc2n(-c2cc(OC)cc(OC)c2)c1=O is ___
// result 15

// query Let us now turn to CCCn1c(=O)c2ccc(N)nc2n(-c2cc(OC)cc(OC)c2)c1=O
// result 4

// query Let us now turn to COc1cc(OC)cc(-n2c(=O)n(CC(C)C)c(=O)c3ccc(N)nc32)c1
// result 2.3
